Sourced from the supplement of paper PMC7411054

Test system: A549-GM130-SQSTM1
Protocol Description: phenotypically active (imaging signature differs from DMSO and reproducible) at any of 0.3-9 uM (binary (1 = active, 0 = inactive)); higher = active
Particulars: treatment time: 24 h
# phenotypically active values compiled below
Property Measured: phenotypically active

Compound | Property Measured | Observed Value
NC(=O)c1sc2c([N+](=O)[O-])cc(C(F)(F)F)cc2[n+]1[O-] | phenotypically active | 0
Cc1[nH]c(=O)c(C#N)cc1-c1ccncc1 | phenotypically active | 0
CC(=O)Nc1nnc(S(N)(=O)=O)s1 [acetazolamide] | phenotypically active | 0
CC/C(=C(\CC)c1ccc(O)c(CN(CC)CC)c1)c1ccc(O)c(CN(CC)CC)c1 | phenotypically active | 1
CCCCc1oc2ccccc2c1C(=O)c1cc(I)c(OCCN(CC)CC)c(I)c1 | phenotypically active | 1

---

System: WPMY1-TUBA1B-RELA
Protocol Description: phenotypically active (imaging signature differs from DMSO and reproducible) at any of 0.3-9 uM (binary (1 = active, 0 = inactive)); higher = active
Particulars: treatment time: 24 h
Classes used: y = active, n = inactive

Compound | Label
c1ccc2c(c1)Cc1c(Nc3ccc4c(c3)OCCO4)n[nH]c1-2 | y
CN(C)/N=N/c1[nH]cnc1C(N)=O [dacarbazine] | n
O=C(O)[C@]1(O)C[C@H](O)[C@@H](O)[C@@H](O)C1 [Quinic acid] | n
COc1ccc(Cl)cc1NC(=O)Nc1cc(C)nc2ccccc12 | n
COc1cc(C#N)ccc1S(=O)(=O)Nc1ccc2c(c1)cc(C)c(=O)n2C | n
CC(C)(C)c1ccc(S(=O)(=O)/C=C/C#N)cc1 | n
O=c1[nH]cnc2[nH]ncc12 [Allopurinol] | n
CCCCOc1cc(C(=O)NCCN(CC)CC)c2ccccc2n1 [cinchocaine] | n
O=C(c1ccccc1)c1ccc2n1CCC2C(=O)O (stereo not given) [ketorolac] | n
COc1cc(C)c(Sc2cnc(NC(=O)c3ccc(CNC(C)C(C)(C)C)cc3)s2)cc1C(=O)N1CCN(C(C)=O)CC1 (stereo not given) | y

---

System: A549-CANX-COX4
Protocol Description: phenotypically active (imaging signature differs from DMSO and reproducible) at any of 0.3-9 uM (binary (1 = active, 0 = inactive)); higher = active
Particulars: treatment time: 24 h
Structures can show the parent of a compound that is named as a salt.
Property Measured: phenotypically active

Compound | Property Measured | Observed Value
CC(C)OC(=O)c1cc2c(OCC(O)CNC(C)(C)C)cccc2[nH]1 (stereo unspecified) | phenotypically active | 0
COc1ccnc(CS(=O)c2nc3cc(OC(F)F)ccc3[nH]2)c1OC (stereo unspecified) | phenotypically active | 0
C/C(=N/NC(=N)N)c1ccc(NC(=O)Nc2ccc(/C(C)=N/NC(=N)N)cc2)cc1 | phenotypically active | 1
COC(=O)Nc1nc2ccc(C(=O)c3cccs3)cc2[nH]1 | phenotypically active | 1
NC1(C(=O)N[C@@H](CCO)c2ccc(Cl)cc2)CCN(c2ncnc3[nH]ccc23)CC1 | phenotypically active | 1
Cc1c(-c2cnccn2)ssc1=S | phenotypically active | 0
CC(C)C(=O)Nc1ccc([N+](=O)[O-])c(C(F)(F)F)c1 [flutamide] | phenotypically active | 0
CCN(CC)CCNc1ccc(CO)c2sc3ccccc3c(=O)c12 | phenotypically active | 1
C#C[C@]1(O)CC[C@H]2[C@@H]3CCC4=CCCC[C@@H]4[C@H]3C(=C)C[C@@]21CC | phenotypically active | 0
CC1CCC(C(C)C)C(O)C1 (stereo unspecified) | phenotypically active | 0
Cc1c(NC(=O)OC[C@@H]2COCCN2)cn2ncnc(Nc3ccc4c(cnn4Cc4cccc(F)c4)c3)c12 | phenotypically active | 1
Cn1nnc2c(C(N)=O)ncn2c1=O [temozolomide] | phenotypically active | 0
Nc1ncnc2c1c(-c1cnc3[nH]ccc3c1)nn2C1CCCC1 | phenotypically active | 1
CC(C)(N)c1cc(C(=O)N[C@@H]2CCc3ccc(OC4=C5CCC(=O)N=C5NC=C4)cc3C2)cc(C(F)(F)F)c1 [ML 786 dihydrochloride] | phenotypically active | 1
N#CC[C@@H](C1CCCC1)n1cc(-c2ncnc3[nH]ccc23)cn1 [ruxolitinib-(S)] | phenotypically active | 1
COC(=O)c1sccc1S(=O)(=O)Nc1ccc(Nc2ccccc2)cc1OC | phenotypically active | 0
Cc1ccccc1C(OCCN(C)C)c1ccccc1 (stereo unspecified) | phenotypically active | 0
NC12CC3CC(CC(C3)C1)C2 | phenotypically active | 0
COc1cc2nccc(Oc3ccc(NC(=O)NC4CC4)c(Cl)c3)c2cc1C(N)=O | phenotypically active | 0
CCCCCCCCCCCCCCCC[n+]1ccn(Cc2ccccc2)c1C | phenotypically active | 1
OC(CCN1CCCCC1)(c1ccccc1)C1CC2C=CC1C2 (stereo unspecified) | phenotypically active | 0
Cc1cc2nc(NCCCO)n(CC(=O)c3cc(C(C)(C)C)c(O)c(C(C)(C)C)c3)c2cc1C | phenotypically active | 0
CCC1(C)OC(=O)N(C)C1=O (stereo unspecified) | phenotypically active | 0
CCCCc1oc2ccccc2c1C(=O)c1cc(I)c(OCCN(CC)CC)c(I)c1 | phenotypically active | 1
O=C(NC(NC(=S)Nc1ccc(F)c([N+](=O)[O-])c1)C(Cl)(Cl)Cl)C(c1ccccc1)c1ccccc1 (stereo unspecified) | phenotypically active | 1
COc1cc2ncnc(Nc3ccc(O)c(Br)c3)c2cc1OC | phenotypically active | 1
CC(C)c1cnn2c(NCc3ccccc3)cc(NCCCCCCN)nc12 [BS 181 dihydrochloride] | phenotypically active | 1
CN(CCOc1ccc(NS(C)(=O)=O)cc1)CCc1ccc(NS(C)(=O)=O)cc1 [dofetilide] | phenotypically active | 0
CC(C)C1=CC2=CCC3[C@](C)(CCC[C@]3(C)C(=O)O)C2CC1 (stereo partly specified) | phenotypically active | 0
CC(=O)N[C@@H]1[C@@H](O[C@H](C)C(=O)O)[C@H](O)[C@@H](CO)O[C@@H]1O | phenotypically active | 0
Cc1cc(C(C)Nc2ccccc2)c2nc(N3CCOCC3)cc(=O)n2c1 (stereo unspecified) | phenotypically active | 0
CC1(C)CCC(c2ccc(Cl)cc2)=C(CN2CCN(c3ccc(C(=O)NS(=O)(=O)c4ccc(N[C@H](CCN5CCOCC5)CSc5ccccc5)c(S(=O)(=O)C(F)(F)F)c4)cc3)CC2)C1 | phenotypically active | 0
CC(C)(C)c1ccc(C(O)CCCN2CCC(C(O)(c3ccccc3)c3ccccc3)CC2)cc1 (stereo unspecified) | phenotypically active | 0
Cc1cc(Nc2ccc(NC(=O)c3ccc(Nc4ccnc5ccccc45)cc3)cc2)nc(N)n1 | phenotypically active | 0
COC(=O)C1=CO[C@@H](O[C@@H]2O[C@H](CO)[C@@H](O)[C@H](O)[C@H]2O)[C@H]2[C@@H]1C(=O)C[C@@H]2C | phenotypically active | 0
O=C(/C=C/c1ccc(O)c(O)c1)O[C@@H]1C[C@](O)(C(=O)O)C[C@@H](O)[C@H]1O | phenotypically active | 0
